# system: L858R/T790M/C797S EGFR (Homo sapiens, UniProt P00533, C797S/L858R/T790M)
# Construct: expressed in transfected cells; host or cells: H1975 clone #25 (lentiviral over-expression, endogenous EGFR knocked out by sgRNA)
# Sequence (P00533 25-1210 T790M/C797S/L858R): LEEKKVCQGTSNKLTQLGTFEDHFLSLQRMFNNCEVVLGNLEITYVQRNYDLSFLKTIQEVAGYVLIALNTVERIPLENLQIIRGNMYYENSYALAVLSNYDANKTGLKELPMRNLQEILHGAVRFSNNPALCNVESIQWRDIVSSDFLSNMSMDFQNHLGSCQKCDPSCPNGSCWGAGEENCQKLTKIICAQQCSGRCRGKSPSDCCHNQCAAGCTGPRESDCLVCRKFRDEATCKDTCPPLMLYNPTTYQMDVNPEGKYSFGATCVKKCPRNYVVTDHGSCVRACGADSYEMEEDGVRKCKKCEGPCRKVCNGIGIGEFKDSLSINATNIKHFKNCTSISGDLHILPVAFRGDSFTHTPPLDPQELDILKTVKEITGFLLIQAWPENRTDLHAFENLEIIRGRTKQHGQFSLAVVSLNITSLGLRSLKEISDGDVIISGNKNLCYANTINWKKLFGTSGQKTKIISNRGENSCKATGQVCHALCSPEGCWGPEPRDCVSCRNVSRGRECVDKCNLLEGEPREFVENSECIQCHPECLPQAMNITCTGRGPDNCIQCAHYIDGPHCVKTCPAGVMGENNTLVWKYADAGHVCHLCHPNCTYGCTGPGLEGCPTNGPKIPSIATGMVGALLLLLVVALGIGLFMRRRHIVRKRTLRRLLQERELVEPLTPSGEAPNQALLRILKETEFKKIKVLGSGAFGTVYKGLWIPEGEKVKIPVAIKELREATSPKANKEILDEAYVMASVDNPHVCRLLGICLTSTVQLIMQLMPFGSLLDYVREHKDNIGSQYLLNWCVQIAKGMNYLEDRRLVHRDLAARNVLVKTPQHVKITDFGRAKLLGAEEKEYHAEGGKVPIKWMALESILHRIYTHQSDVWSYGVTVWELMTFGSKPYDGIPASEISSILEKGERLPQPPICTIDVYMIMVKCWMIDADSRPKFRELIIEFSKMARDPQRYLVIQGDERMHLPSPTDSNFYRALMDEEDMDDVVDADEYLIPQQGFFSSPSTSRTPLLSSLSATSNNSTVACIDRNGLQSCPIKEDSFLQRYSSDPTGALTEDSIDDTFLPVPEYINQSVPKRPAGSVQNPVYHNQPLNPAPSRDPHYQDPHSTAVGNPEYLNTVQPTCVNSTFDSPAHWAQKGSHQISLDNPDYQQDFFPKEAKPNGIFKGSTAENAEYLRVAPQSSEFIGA
# experimentSummary: EGFR degradation HTRF assay in H1975-clone #25 (LTC) cells
# Type: cell-based
# testConditions: H1975 # 25-LTC (L858R/T790M/C797S), 16h treatment, HTRF
Binarize DC50 at 0.7 nM; below is MET, at or above is NOT MET.

Ask | State whether 0.7 nM exceeds DC50 recorded for `Cc1cc2cc(n1)-c1cnn(C)c1OCCC[C@@H](C)CN1/C(=N/C2=O)Nc2ccc(C(=O)N3CC[C@H](NCCc4cc(F)c([C@H]5CCC(=O)NC5=O)c(F)c4)C3)cc21` .
Reply | NOT MET

Ask | Now give it for `Cc1cc2cc(n1)-c1cnn(C)c1OCCC[C@@H](C)CN1/C(=N/C2=O)Nc2ccc(C(=O)N(C)[C@H]3CCN(CCc4cc(F)c([C@H]5CCC(=O)NC5=O)c(F)c4)C[C@H]3C)cc21` too.
Reply | MET

Ask | Check `Cc1cc2cc(n1)-c1cnn(C)c1OCCC[C@@H](C)CN1/C(=N/C2=O)Nc2ccc(N3CCC(C(=O)N(C)CCc4cc(F)c([C@H]5CCC(=O)NC5=O)c(F)c4)CC3)cc21` too.
Reply | MET

Ask | Lookup `Cc1cc2cc(n1)-c1cnn(C)c1OCCC[C@@H](C)CN1/C(=N/C2=O)Nc2ccc(N3CCC(N4CCC(Oc5cc(F)c([C@H]6CCC(=O)NC6=O)c(F)c5)CC4)CC3)cc21`
Reply | NOT MET

Ask | Check `Cc1cc2cc(n1)-c1cnn(C)c1OCCC[C@@H](C)CN1/C(=N/C2=O)Nc2ccc(C(=O)N3CCN(C(=O)[C@@H]4CCN(c5cc(F)c([C@H]6CCC(=O)NC6=O)c(F)c5)C4)CC3)cc21` too.
Reply | MET
